# Method Description: Water solubility of ART631, alone and loaded into nanogels
# Type: physicochemical
# Condition Description: drug without nanogel
Attribute Measured: solubility

What measured solubility goes with C=CCO/N=C(/C[C@H]1O[C@@H]2O[C@@]3(C)CC[C@H]4[C@H](C)CC[C@@H]([C@H]1C)[C@@]24OO3)[C@H]1O[C@@H]2O[C@@]3(C)CC[C@H]4[C@H](C)CC[C@@H]([C@H]1C)[C@@]24OO3 ? < 10 µg/mL
